Tested on: HT29 colon
Test: NCI-60 one-dose screen, 48 h
Conditions: 10 µM unless noted
Compounds without any hit were thinned out: in the full panel of roughly 83,000, 20% have a hit. Activity calls are given as the source filed them. Rule for the calls: active = growth percent below 10; inactive = the rest.
Labels: active, inactive

* CCCCNC(=O)Oc1ccc(/C(=C(/C)Cc2ccc(OC)cc2)c2ccc(OCCN3CCCC3)cc2)cc1 | active
* COc1ccc(Nc2ncc(Br)c(NCCCNC(=O)C3CCCC3)n2)cc1 | inactive
* O=C(NCCCl)Nc1ncccc1OCc1ccccc1 | inactive

====

Tested on: HS 578T breast
Assay: NCI-60 one-dose screen, 48 h (100 = growth as untreated, 0 = no growth, -100 = all killed)
Details: 10 µM unless noted
Compounds without any hit were thinned out: in the full panel of roughly 83,000, 20% have a hit. The source made the active and inactive calls. Rule for the calls: active = growth percent below 10; inactive = the rest.
reported endpoint: growth

- Fc1cnccc1C1CC(c2ccc(N3CCNCC3)cc2)=NN1 (configuration not stated): 89.2% (inactive)
- COC(=O)[C@]12CCC(C)(C)C[C@H]1[C@H]1/C(=N/OCCc3nn[nH]n3)C[C@@H]3[C@@]4(C)CC[C@H](OC(C)=O)C(C)(C)[C@@H]4CC[C@@]3(C)[C@]1(C)CC2: 48.3% (inactive)
- O=C(O)c1cn(C2CC2)c2cc(N3CCN(C(=O)N(c4ccccc4)c4nc(-c5ccccc5)cs4)CC3)c(F)cc2c1=O: 24.5% (inactive)
- O=C(COc1ccc(-c2nc3cc(Cl)c(Cl)cc3[nH]2)cc1)N=Nc1c(O)[nH]c2ccc(Cl)cc12: 67.5% (inactive)
- CCc1ccccc1-n1c(-c2ccc(OC)cc2)cc(-c2ccc(OC)cc2)c(C#N)c1=O: 17.9% (inactive)
- CCCCCOC(=O)c1c(C)[nH]c(/C=C2\N=C(c3ccc[nH]3)C=C2OC)c1C: -23.5% (active)
- O=C1Nc2ccc(C(=O)O)cc2/C1=N/c1nnc(Sc2ccccc2)s1: 96.8% (inactive)
- C/C(Cc1ccc(Cl)cc1)=C(\c1ccc(O)cc1)c1ccc(Cl)cc1: 99.6% (inactive)
- Clc1cccc(Nc2ncnc3ccc(-c4cnc5[nH]ccc5c4)cc23)c1: 81.4% (inactive)
- CCCCCN1C(=O)/C(=c2\sc3n(c2=O)C2C(NN=3)N(CC)C(=O)N2CC)c2ccccc21 (configuration not stated): -17.6% (active)
- Cc1ccc(C(=O)c2ccc(CC(=O)N/N=C/c3ccccc3O)n2C)cc1: 104% (inactive)
- [O-]/[N+](=C\c1ccc(-n2cc(Cc3ccccc3Cc3cn(-c4ccc(/C=[N+](/[O-])c5ccccc5)cc4)nn3)nn2)cc1)c1ccccc1: 110% (inactive)
- CCOC(=O)n1ccn(C)c1=S: 132% (inactive)
- O=C(c1ccncc1)N1N=C(c2ccc(Cl)cc2)C[C@H]1c1cn(-c2ccccc2)nc1-c1ccccc1: 87.2% (inactive)
- COc1cc(NS(=O)(=O)c2ccc(-c3cnc(C4CC4)o3)cc2)ccc1F: 8.89% (active)
- CCOC(=O)C(=O)C(C(=O)OCC)c1ccccc1 (configuration not stated): 94.2% (inactive)
- O=C(Cn1cc(CSc2nc3ccccc3o2)nn1)Nc1ccc(F)cc1F: 107% (inactive)
- O=C(NCCNc1nccc(Nc2ccc(S(=O)(=O)Nc3ccccn3)cc2)n1)c1cccc([N+](=O)[O-])c1: 108% (inactive)
- COC(=O)[C@]1(C)CCC[C@]2(C)[C@H]3C[C@H]4C(C(C)C)=C[C@]3(CC[C@H]21)[C@@H]1C(=O)CC[C@H](OCCC#N)[C@@H]14: 79.9% (inactive)
- COc1ccc(-c2ccc(-c3ccc(C(=N)N)cc3)s2)cc1Cl: 44.9% (inactive)
- COc1ccc(/C=C(\C#N)n2nnc3cc(F)c(F)cc32)cc1: 92.1% (inactive)
- CCOc1ccc(NC(=O)CSc2oc(-c3ccccc3)nc2S(=O)(=O)c2ccc(C)cc2)cc1: 59.9% (inactive)
- COCCn1cc(-c2nc(-c3cc4cccnc4[nH]3)cs2)c2cc(OC)ccc21: -4.1% (active)
- COCCOc1cc2ncnc(N3CCN(c4cc(S(C)(=O)=O)c(C)cc4Cl)CC3)c2cc1OCCOC: 90.6% (inactive)
- CC1OC(n2c3ccccc3c3c4c(c5c6ccccc6[nH]c5c32)C(=O)N(CCN2CCCC2)C4=O)CC(O)C1O (configuration not stated): 58.2% (inactive)
- CCC(C(=O)[C@@H](C)[C@@H](O)[C@H](C)[C@@H]1O[C@@H]([C@@H](CC)C(=O)ONC(=O)c2ccccc2)CC[C@@H]1C)[C@H]1O[C@]2(C=CC(=O)[C@]3(CC[C@@](C)([C@H]4CC[C@](O)(CC)[C@H](C)O4)O3)O2)[C@H](C)C[C@@H]1C (some centres not stated): -2.36% (active)
- N#Cc1nc(-c2ccc(F)cc2)oc1S(=O)(=O)N1CCOCC1: 123% (inactive)

All figures here come from PubChem BioAssay (NCI).
